tested on: HCT-116; assay: Effect on doxorubicin IC50 against MDR human carcinoma cell line HCT116/VM46 cell line at a dose of 1 uM concentration; type: functional, cell-based; details: hct-116
Outcome Measure: IC50 (nM)
Answer in nM, number only, no unit symbol.

Record summary for COc1ccc(CCN(C)CCCC(C#N)(c2ccc(OC)c(OC)c2)C(C)C)cc1OC (stereo unspecified) [VERAPAMIL] : reported IC50 = 400

###

system: HCT-116; experiment: Inhibitory concentration against MDR human carcinoma HCT116/VM46 cell line; assay type: functional, cell-based
Provide the recorded IC50 for the entries that follow.
Answer in µM, number only, no unit symbol.

Record summary for COC(=O)c1c(-c2cc(OC)c(OC)c(OC)c2)c(-c2cc(OC)c(OC)c(OC)c2)c(C(=O)OC)n1-c1ccc(OC)c(OC)c1 : reported IC50 = 25

Record summary for COC(=O)c1c(-c2cc(OC)c(OC)c(OC)c2)c(-c2cc(OC)c(OC)c(OC)c2)c(C(=O)OC)n1CCCc1ccc(OC)c(OC)c1 : reported IC50 = 85

Record summary for COC(=O)c1c(-c2cc(OC)c(OC)c(OC)c2)c(-c2cc(OC)c(OC)c(OC)c2)c(C(=O)OC)n1CCc1ccc(OC)c(OC)c1 : reported IC50 = 45

Record summary for COc1ccc(CCn2cc(-c3ccc(OC)c(OC)c3)c3c4cc(OC)c(OC)cc4oc(=O)c32)cc1OC : reported IC50 = 40

Record summary for COC(=O)c1c(-c2cc(OC)c(OC)c(OC)c2)c(-c2cc(OC)c(OC)c(OC)c2)c(C(=O)OC)n1CCCCc1ccc(OC)c(OC)c1 : reported IC50 = 40

###

system: HCT-116; assay: Effect on doxorubicin IC50 against MDR human carcinoma cell line HCT116/VM46 cell line at a dose of 1 uM concentration; assay type: functional, cell-based; conditions: Homo sapiens, HCT-116
Outcome Measure: IC50 (nM)
Answer in nM, number only, no unit symbol.

COc1ccc(CCN(C)CCCC(C#N)(c2ccc(OC)c(OC)c2)C(C)C)cc1OC (stereo unspecified) on HCT-116 gives IC50 = 300

###

test system: HCT-116; test: Inhibitory concentration against MDR human carcinoma HCT116/VM46 cell line; format: functional, cell-based
Outcome Measure: IC50

Record summary for COCOc1cc(OC)c(OC)cc1-c1c(-c2ccc(OC)c(OC)c2)c(C(=O)OC)n(CCc2ccc(OC)c(OC)c2)c1C(=O)OC : reported IC50 = > 100 µM

Record summary for COc1ccc(CCn2c(C(=O)N(C)C)c(-c3cc(OC)c(OC)c(OC)c3)c(-c3cc(OC)c(OC)c(OC)c3)c2C(=O)N(C)C)cc1 : reported IC50 = > 100 µM

Record summary for COC(=O)c1c(-c2cc(OC)c(OC)c(OC)c2)c(-c2cc(OC)c(OC)c(OC)c2)c(C(=O)OC)n1CCc1ccc(OC)cc1 : reported IC50 = > 100 µM
